Molecular target: FGFR3 (Homo sapiens, UniProt P22607)
Sequence (P22607 23-806): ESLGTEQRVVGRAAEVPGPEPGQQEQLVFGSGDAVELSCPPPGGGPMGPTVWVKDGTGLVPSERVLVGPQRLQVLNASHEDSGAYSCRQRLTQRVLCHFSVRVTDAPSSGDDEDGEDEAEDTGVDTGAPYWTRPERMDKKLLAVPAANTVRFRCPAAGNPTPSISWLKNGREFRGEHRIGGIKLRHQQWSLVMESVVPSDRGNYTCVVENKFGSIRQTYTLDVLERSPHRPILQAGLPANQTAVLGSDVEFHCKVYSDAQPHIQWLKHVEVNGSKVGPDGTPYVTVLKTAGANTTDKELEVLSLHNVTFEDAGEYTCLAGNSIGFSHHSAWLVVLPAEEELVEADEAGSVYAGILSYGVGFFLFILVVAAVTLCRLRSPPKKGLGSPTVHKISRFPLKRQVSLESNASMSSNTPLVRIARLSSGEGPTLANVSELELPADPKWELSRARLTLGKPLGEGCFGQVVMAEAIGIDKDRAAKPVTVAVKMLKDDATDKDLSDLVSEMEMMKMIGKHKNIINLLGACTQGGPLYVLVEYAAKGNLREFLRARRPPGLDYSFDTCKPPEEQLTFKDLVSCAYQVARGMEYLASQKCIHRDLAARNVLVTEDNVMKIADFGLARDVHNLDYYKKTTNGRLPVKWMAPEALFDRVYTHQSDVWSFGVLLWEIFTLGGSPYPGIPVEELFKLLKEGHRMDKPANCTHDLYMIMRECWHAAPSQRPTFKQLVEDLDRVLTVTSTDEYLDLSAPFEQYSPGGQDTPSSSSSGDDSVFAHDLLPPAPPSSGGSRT
Assay: FDCP-FGFR3 proliferation assay performed with FGF9
Type: cell-based
Conditions: dimeric dHLX format
property: IC50 (nM)
The reply should contain only the number, in nM.

Qu. I have this molecule here, PRO-054: HuCAL clone anti-FGFR3 antibody; VH-CDR3 SEQ ID NO:8, VL-CDR3 SEQ ID NO:17 (antibody, V domains shown) VH: QVQLVQSGAEVKKPGASVKVSCKASGYTFTSYYMHWVRQAPGQGLEWMGWINPNSGGTNYAQKFQGRVTMTRDTSISTAYMELSSLRSEDTAVYYCARNMAYTNYQYVNMPHFDYWGQGTLVTVSS VL: DIELTQPPSVSVAPGQTARISCSGDALGDKYASWYQQKPGQAPVLVIYDDSDRPSGIPERFSGSNSGNTATLTISGTQAEDEADYYCQSYDYFKLVFGGGTKLTVLGQ , and I need its recorded IC50.
Ans. 45

Qu. Requested read-out: IC50. Entry: PRO-055: HuCAL clone anti-FGFR3 antibody; VH-CDR3 SEQ ID NO:9, VL-CDR3 SEQ ID NO:18 (antibody, V domains shown) VH: QVQLVQSGAEVKKPGASVKVSCKASGYTFTSYYMHWVRQAPGQGLEWMGWINPNSGGTNYAQKFQGRVTMTRDTSISTAYMELSSLRSEDTAVYYCARSMNSTMYWYLRRVLFDHWGQGTLVTVSS VL: DIALTQPASVSGSPGQSITISCTGTSSDVGGYNYVSWYQQHPGKAPKLMIYDVSNRPSGVSNRFSGSKSGNTASLTISGLQAEDEADYYCQSYDMYNYIVFGGGTKLTVLGQ
Ans. 34

Qu. IC50 lookup needed for PRO-026: HuCAL clone anti-FGFR3 antibody; VH-CDR3 SEQ ID NO:6, VL-CDR3 SEQ ID NO:15 (antibody, V domains shown) VH: QVQLVQSGAEVKKPGASVKVSCKASGYTFTSYYMHWVRQAPGQGLEWMGWINPNSGGTNYAQKFQGRVTMTRDTSISTAYMELSSLRSEDTAVYYCARGYWYAYFTYINYGYFDNWGQGTLVTVSS VL: DIALTQPASVSGSPGQSITISCTGTSSDVGGYNYVSWYQQHPGKAPKLMIYDVSNRPSGVSNRFSGSKSGNTASLTISGLQAEDEADYYCQSYDNNSDVVFGGGTKLTVLGQ , thanks.
Ans. 70

Qu. For the molecule shown here, PRO-029: HuCAL clone anti-FGFR3 antibody; VH-CDR3 SEQ ID NO:7, VL-CDR3 SEQ ID NO:16 (antibody, V domains shown) VH: QVQLVQSGAEVKKPGASVKVSCKASGYTFTSYYMHWVRQAPGQGLEWMGWINPNSGGTNYAQKFQGRVTMTRDTSISTAYMELSSLRSEDTAVYYCARTWQYSYFYYLDGGYYFDIWGQGTLVTVSS VL: DIVLTQSPATLSLSPGERATLSCRASQSVSSSYLAWYQQKPGQAPRLLIYGASSRATGVPARFSGSGSGTDFTLTISSLEPEDFATYYCQQTNNAPVTFGQGTKVEIKRT , give the reported IC50.
Ans. 20

Data origin, for the record: patent US20080044419A1
